Biological target: KDR kinase domain (Homo sapiens)
Construct: The cytosolic kinase domain of KDR kinase was expressed as a 6His fusion protein in Sf9 insect cells; 6His
Sequence (P35968 834-1162 limits assumed): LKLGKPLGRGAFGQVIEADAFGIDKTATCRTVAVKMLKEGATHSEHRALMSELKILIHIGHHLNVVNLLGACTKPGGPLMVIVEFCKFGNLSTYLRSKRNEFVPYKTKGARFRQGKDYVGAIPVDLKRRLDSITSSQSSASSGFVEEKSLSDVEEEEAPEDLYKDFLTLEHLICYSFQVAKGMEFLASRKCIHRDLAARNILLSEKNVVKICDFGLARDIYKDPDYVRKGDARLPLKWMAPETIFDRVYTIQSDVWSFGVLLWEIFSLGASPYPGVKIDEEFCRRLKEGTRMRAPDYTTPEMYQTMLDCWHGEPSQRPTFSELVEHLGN
Assay: KDR Assay (ELISA of poly(Glu4;Tyr1) phosphorylation)
Conditions: 3.3 µM ATP, 60 minutes at room temperature
pIC50: −log10 of the molar value.
I'd be grateful if you could share measured pIC50 for these entries.

What measured pIC50 goes with CNC(=O)c1cc(COc2nnc(Nc3ccc(N(C)C(C)=O)cc3)c3ccoc23)ccn1 ?
6.00 to 7.00

What measured pIC50 goes with c1nc2ccc(Nc3nnc(Nc4ccc5c(c4)CCC5)c4ccsc34)cc2s1 ?
≥ 7.00

What measured pIC50 goes with OCc1cc(COc2nnc(Nc3ccc(Cl)cc3)c3ccoc23)ccn1 ?
6.00 to 7.00

What measured pIC50 goes with Cc1ccc(Nc2nnc(Nc3ccc4ncsc4c3)c3ccccc23)cc1F ?
≥ 7.00

What measured pIC50 goes with c1ccc2c(Nc3ccc4ncsc4c3)ncc(Sc3ccncc3)c2c1 ?
6.00 to 7.00

What measured pIC50 goes with COc1ccc(Nc2nnc(OCc3ccncc3)c3occc23)cc1 ?
6.00 to 7.00

What measured pIC50 goes with CCN(c1ccc(Nc2nnc(Nc3ccc4ncsc4c3)c3ccccc23)cc1)C(C)C ?
6.00 to 7.00

What measured pIC50 goes with c1ccc2c(Nc3ccc4ncsc4c3)nnc(Nc3ccc4ncsc4c3)c2c1 ?
≥ 7.00

What measured pIC50 goes with CNC(=O)c1cc(COc2nnc(Nc3ccccc3OC)c3ccoc23)ccn1 ?
6.00 to 7.00

What measured pIC50 goes with CNC(=O)c1cc(COc2nnc(Nc3ccc(F)c(Cl)c3)c3ccoc23)ccn1 ?
6.00 to 7.00

What measured pIC50 goes with O=C(c1cc(COc2nnc(Nc3ccc(Cl)cc3)c3ccoc23)ccn1)N1CCOCC1 ?
6.00 to 7.00

What measured pIC50 goes with CNC(=O)c1cc(COc2nnc(Nc3ccc4[nH]ncc4c3)c3ccoc23)ccn1 ?
6.00 to 7.00
